protocol description: Caco-2 Permeability Assay (bidirectional)
Format: in vitro ADME
assay context: human, Caco-2; Direction A→B; 1 μM, 120 minutes, pH 7.4; unit not given (thresholds in 10^−6 cm/s)
measurement name: Papp A→B at 120 min, 1 μM (×10⁻⁶ cm/s)

The cases that follow already have their Papp A→B at 120 min, 1 μM on record.
O=C(Cc1cccc(OC(F)(F)F)c1)Nc1ccc(CCCCc2nnc(NC(=O)[C@H](O)c3ccccc3)s2)nn1: 8.52
CC(C)(C)OC(=O)NCc1cccc(CC(=O)Nc2nnc(CCCCc3ccc(NC(=O)Cc4ccccc4)nn3)s2)c1: 2.39

[I] O=C(Cc1cccc(OC(F)(F)F)c1)Nc1ccc(CCCCc2nnc(NC(=O)Cc3ccccc3)s2)nn1
[II] O=C(Cc1ccccc1Cl)Nc1ccc(CCCCc2nnc(NC(=O)Cc3ccccc3F)s2)nn1
[III] O=C(Cc1ccccc1)Nc1ccc(CCCCc2nnc(NC(=O)C(O)c3cccc(Cl)c3)s2)nn1 (centres unmarked)
[IV] O=C(Cc1cccc(OC(F)(F)F)c1)Nc1ccc(CCCCc2nnc(NC(=O)Cc3cccc(OC(F)(F)F)c3)s2)nn1
// smallest Papp A→B at 120 min, 1 μM at index 0, largest at the end Please list the labels according to the requested order.
IV, III, II, I

* * *

protocol description: Caco-2 Permeability Assay (bidirectional)
Assay type: in vitro ADME
assay context: human, Caco-2, pH 7.4, Direction B→A; 1 μM, 120 minutes, pH 7.4
measurement name: recovery at 120 min, 1 μM (%)

The cases that follow already have their recovery at 120 min, 1 μM on record.
O=C(Cc1cccc(OC(F)(F)F)c1)Nc1ccc(CCCCc2nnc(NC(=O)Cc3ccccn3)s2)nn1: 72
CC(C(=O)Nc1ccc(CCCCc2nnc(NC(=O)Cc3cccc(CNC(=O)OC(C)(C)C)c3)s2)nn1)c1ccccc1 (stereo not shown): 57
CC(C(=O)Nc1nnc(CCCCc2ccc(NC(=O)Cc3ccccc3)nn2)s1)c1ccccc1 (stereo not shown): 76
O=C(Cc1cccc(OC(F)(F)F)c1)Nc1ccc(CCCCc2nnc(NC(=O)Cc3cccc(OC(F)(F)F)c3)s2)nn1: 68
O=C(Cc1ccccc1)Nc1ccc(CCCCc2nnc(NC(=O)Cc3ccccn3)s2)nn1: 101

[a] O=C(Cc1ccccc1)Nc1ccc(CCCCc2nnc(NC(=O)C(O)c3cccc(Cl)c3)s2)nn1 (stereo not shown)
[b] O=C(Cc1cccc(OC(F)(F)F)c1)Nc1ccc(CCCCc2nnc(NC(=O)C(O)c3cccc(Cl)c3)s2)nn1 (stereo not shown)
Which is greater in recovery at 120 min, 1 μM, the first item a or the second item b ? // output: label of the selected item
a
(a: 82%, b: 56%)

* * *

assayed system: recombinant form of Glutaminase 1 (GAC) (Homo sapiens, UniProt O94925)
protocol description: Recombinant Enzyme Assay (GAC coupled to GDH, NADH absorbance, no preincubation)
Format: biochemical
assay context: no preincubation; read-out: GAC Delta N2 IC50 no preinc
pIC50: −log10 of the molar value.
measurement name: pIC50

COc1ccc(C(O)C(=O)Nc2nnc(CCCCc3nnc(NC(=O)C(O)c4ccc(OC)cc4)s3)s2)cc1 (stereo not shown): 6.40
CC(=O)NCC(C(=O)Nc1nnc(CCSCCc2nnc(NC(=O)C(CNC(C)=O)c3ccccc3)s2)s1)c1ccccc1 (stereo not shown): 5.01
O=C(Cc1ccccc1)Nc1nnc(CCCCc2nnc(NC(=O)Cc3c(Cl)ccc(O)c3F)s2)s1: 6.80

[a] CS(=O)(=O)c1cccc(CC(=O)Nc2nnc(CCSCCc3nnc(NC(=O)Cc4cccc(S(C)(=O)=O)c4)s3)s2)c1
[b] CC(C)(C)OC(=O)N1CCC(CC(=O)Nc2nnc(CCCCc3nnc(NC(=O)CC4CCN(C(=O)OC(C)(C)C)CC4)s3)s2)CC1
Kindly identify the item with the lower pIC50 figure among these two: a and b // output: label of the selected item
b

* * *

protocol description: Solubility (18 hr vortex mixing at room temperature, filtration, HPLC)
Assay type: physicochemical
assay context: 20 °C, oil or lipid, thermodynamic from solid; Capryol PGMC; room temperature
measurement name: solubility at 18 h (µg/mL)

O=C(Cc1ccccc1)Nc1ccc(CCCCc2nnc(NC(=O)Cc3ccccc3)s2)nn1: 1540
O=C(Cc1cccc(OC(F)(F)F)c1)Nc1ccc(CCCCc2nnc(NC(=O)C(O)c3cccc(Cl)c3)s2)nn1 (centres unmarked): 7920

[P] CCCC(=O)OCN(C(=O)Cc1ccccc1)c1nnc(CCCCc2ccc(NC(=O)Cc3ccccc3)nn2)s1
[Q] O=C(Cc1cccc(OC(F)(F)F)c1)Nc1ccc(CCCCc2nnc(NC(=O)[C@@H](O)c3ccccc3)s2)nn1
[R] O=C(Cc1cccc(OC(F)(F)F)c1)Nc1ccc(CCCCc2nnc(NC(=O)Cc3ccccc3)s2)nn1
// smallest solubility at 18 h at index 0, largest at the end Please list the labels according to the requested order.
R, Q, P

* * *

protocol description: Caco-2 Permeability Assay (bidirectional)
Format: in vitro ADME
assay context: human, Caco-2, pH 7.4, Direction A→B; 1 μM, 120 minutes, pH 7.4
measurement name: recovery at 120 min, 1 μM (%)

O=C(Cc1cccc(OC(F)(F)F)c1)Nc1ccc(CCCCc2nnc(NC(=O)[C@H](O)c3ccccc3)s2)nn1 [Compound 705]: 60
CC(C)(C)OC(=O)NCc1cccc(CC(=O)Nc2nnc(CCCCc3ccc(NC(=O)Cc4ccccc4)nn3)s2)c1 [Compound 339]: 73
O=C(Cc1cccc(OC(F)(F)F)c1)Nc1ccc(CCCCc2nnc(NC(=O)C(O)c3cccc(Cl)c3)s2)nn1 (stereo not drawn) [Compound 447]: 71

* * *

protocol description: Solubility (18 hr vortex mixing at room temperature, filtration, HPLC)
Assay type: physicochemical
assay context: 50 mM citrate buffer pH 4.4, 20 °C, aqueous buffer, thermodynamic from solid; 50 mM Cit pH 4.4; room temperature
measurement name: solubility at 18 h

O=C(Cc1ccccc1)Nc1ccc(CCCCc2nnc(NC(=O)Cc3ccccc3)s2)nn1: < 2 µg/mL

What measured solubility at 18 h goes with CCCC(=O)OCN(C(=O)Cc1ccccc1)c1nnc(CCCCc2ccc(NC(=O)Cc3ccccc3)nn2)s1 ?
< 4 µg/mL

What measured solubility at 18 h goes with O=C(Cc1cccc(OC(F)(F)F)c1)Nc1ccc(CCCCc2nnc(NC(=O)[C@@H](O)c3ccccc3)s2)nn1 ?
< 4 µg/mL

What measured solubility at 18 h goes with O=C(Cc1cccc(OC(F)(F)F)c1)Nc1ccc(CCCCc2nnc(NC(=O)Cc3ccccc3)s2)nn1 ?
< 2 µg/mL

What measured solubility at 18 h goes with O=C(Cc1cccc(OC(F)(F)F)c1)Nc1ccc(CCCCc2nnc(NC(=O)C(O)c3cccc(Cl)c3)s2)nn1 (centres unmarked) ?
< 4 µg/mL

* * *

assayed system: recombinant form of Glutaminase 1 (GAC) (Homo sapiens, UniProt O94925)
protocol description: Recombinant Enzyme Assay (GAC coupled to GDH, NADH absorbance, no preincubation)
Assay type: biochemical
assay context: no preincubation; read-out: GAC Delta N2 IC50 no preinc
pIC50: −log10 of the molar value.
measurement name: pIC50

[P] CCC(C)C(=O)Nc1nnc(CCSCCc2nnc(NC(=O)C(C)CC)s2)s1 (stereo not shown)
[Q] O=C(Nc1nnc(CCCCc2nnc(NC(=O)[C@H](O)c3ccccc3)s2)s1)[C@H](O)c1ccccc1
[R] COc1ccc(Cl)c(CC(=O)Nc2nnc(CCCCc3nnc(NC(=O)Cc4ccccc4)s3)s2)c1F
Which order do the items above take when sorted by pIC50 from high to low? Please list the labels according to the requested order.
R, Q, P

* * *

protocol description: Caco-2 Permeability Assay (bidirectional)
Type: in vitro ADME
assay context: human, Caco-2, pH 7.4, Direction B→A; 1 μM, 120 minutes, pH 7.4
measurement name: recovery at 120 min, 1 μM (%)

O=C(Cc1ccccc1Cl)Nc1ccc(CCCCc2nnc(NC(=O)Cc3ccccc3F)s2)nn1: 52

[a] O=C(Cc1cccc(OC(F)(F)F)c1)Nc1ccc(CCCCc2nnc(NC(=O)[C@@H](O)c3ccccc3)s2)nn1
[b] O=C(Cc1ccccc1)Nc1ccc(CCCCc2nnc(NC(=O)Cc3ccccc3)s2)nn1
Kindly identify the item with the lower recovery at 120 min, 1 μM figure among these two: a and b // output: label of the selected item
a

* * *

protocol description: Solubility (18 hr vortex mixing at room temperature, filtration, HPLC)
Format: physicochemical
assay context: 20 °C, organic solvent or mixture, thermodynamic from solid; PG; room temperature
measurement name: solubility at 18 h (µg/mL)

O=C(Cc1cccc(OC(F)(F)F)c1)Nc1ccc(CCCCc2nnc(NC(=O)Cc3ccccc3)s2)nn1: 1420

[I] CCCC(=O)OCN(C(=O)Cc1ccccc1)c1nnc(CCCCc2ccc(NC(=O)Cc3ccccc3)nn2)s1
[II] O=C(Cc1cccc(OC(F)(F)F)c1)Nc1ccc(CCCCc2nnc(NC(=O)C(O)c3cccc(Cl)c3)s2)nn1 (centres unmarked)
[III] O=C(Cc1cccc(OC(F)(F)F)c1)Nc1ccc(CCCCc2nnc(NC(=O)[C@@H](O)c3ccccc3)s2)nn1
[IV] O=C(Cc1ccccc1)Nc1ccc(CCCCc2nnc(NC(=O)Cc3ccccc3)s2)nn1
// smallest solubility at 18 h at index 0, largest at the end Please list the labels according to the requested order.
IV, I, III, II

Measured values drawn from patent US8604016B2 for this set.
